tested_system: human mAChR M4 (Homo sapiens)
Construct: expressed in transfected cells; host or cells: CHO-K1 (ATCC), stably expressing hM4 and Gqi5
assay_summary: mAChR M4 cell-based functional assay: calcium flux (Fluo-4, FDSS), positive allosteric modulator activity on the EC20 acetylcholine response, hM4-Gqi5 CHO-K1 cells
study_conditions: human M4; PAM activity on EC20 acetylcholine response, calcium flux; read-out: Human M4 EC50
parameter: EC50 (nM)

Example compounds with recorded EC50:
CC1CN(c2ncnc3ccc(F)cc23)Cc2cc(C(F)(F)F)cnc21 (racemic) [Compound 115] = 60
Cn1nccc1Nc1nc(N2CCc3ncc(C(F)(F)F)cc3C2)c2cc(F)ccc2n1 = 340
Cc1cc2n(n1)CCCN2c1cnc2c(c1)CN(c1ncnc3ccc(F)cc13)CC2 = 60

(I) Fc1ccc2nc(C(F)(F)F)nc(N3CCc4ncc(N5CCOc6ncccc65)cc4C3)c2c1
(II) Clc1ccc2ncnc(N3CCc4ncc(C5CC5)cc4C3)c2c1
(III) Cc1nn(-c2cnc3c(c2)CN(c2ncnc4ccc(F)cc24)CC3)c2cccnc12
(IV) Cc1nc(N2CCc3ncc(Nc4cccnc4F)cc3C2)c2cc(F)ccc2n1
[Q] Order the records by EC50, with each subsequent value no larger than the one before. Returns: the labels arranged in the requested order.
[A] III, I, IV, II

* * *

tested_system: human mAChR M4 (Homo sapiens, UniProt P08173)
Construct: expressed in transfected cells; host or cells: CHO-K1 (ATCC), stably expressing hM4 and Gqi5
Sequence (P08173 whole entry): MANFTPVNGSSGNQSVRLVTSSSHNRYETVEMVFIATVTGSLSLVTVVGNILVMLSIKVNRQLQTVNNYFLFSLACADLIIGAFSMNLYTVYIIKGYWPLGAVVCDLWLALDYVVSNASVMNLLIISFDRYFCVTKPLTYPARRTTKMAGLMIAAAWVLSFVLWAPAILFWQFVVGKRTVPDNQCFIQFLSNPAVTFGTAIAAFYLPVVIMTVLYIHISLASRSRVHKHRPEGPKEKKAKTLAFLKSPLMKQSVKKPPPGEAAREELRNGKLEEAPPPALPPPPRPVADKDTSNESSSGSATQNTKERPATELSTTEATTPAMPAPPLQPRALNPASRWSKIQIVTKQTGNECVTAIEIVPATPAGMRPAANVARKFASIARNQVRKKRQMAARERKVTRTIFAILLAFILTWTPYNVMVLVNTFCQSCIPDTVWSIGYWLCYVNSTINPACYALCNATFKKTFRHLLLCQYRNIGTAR
assay_summary: mAChR M4 cell-based functional assay: calcium flux (Fluo-4, FDSS), positive allosteric modulator activity on the EC20 acetylcholine response, hM4-Gqi5 CHO-K1 cells
study_conditions: human M4; PAM activity on EC20 acetylcholine response, calcium flux; read-out: Human M4 EC50
pEC50: −log10 of the molar value.
parameter: pEC50

Worked cases, answers included:
Fc1cc2ncnc(N3CCc4ncc(-n5cccn5)cc4C3)c2cc1F = 6.66
Cc1cnn(C)c1-c1cnc2c(c1)CN(c1ncnc3cc(F)c(F)cc13)CC2 = 7.00
Fc1ccc2nc(Cl)nc(N3CCc4ncc(N5CCCn6nccc65)cc4C3)c2c1 = 6.72

(I) Cc1nc(N2CCc3ncc(-c4cc(F)c(F)cc4C)cc3C2)c2cc(F)ccc2n1
(II) Cn1cc(-c2cnc3c(c2)CN(c2ncnc4ccc(F)cc24)CC3)cn1
(III) Cc1ccc(-c2cnc3c(c2)CN(c2nc(C)nc4ccc(C(F)(F)F)cc24)CC3)cn1
(IV) Fc1ccc2ncnc(N3CCc4ncc(Cc5ccccc5F)cc4C3)c2c1
[Q] Which order do these items take when sorted by rising pEC50? List them. Hello, could you send the labels back in the order asked? Thank you.
[A] I, III, IV, II

* * *

tested_system: human mAChR M4 (Homo sapiens, UniProt P08173)
Construct: expressed in transfected cells; host or cells: CHO-K1 (ATCC), stably expressing hM4 and Gqi5
assay_summary: mAChR M4 cell-based functional assay: calcium flux (Fluo-4, FDSS), positive allosteric modulator activity on the EC20 acetylcholine response, hM4-Gqi5 CHO-K1 cells
study_conditions: CHO-K1, human M4; % ACh maximum at 30 μM
Procedure: […] Calcium flux was measured using the Functional Drug Screening System (FDSS) 6000 or 7000 (Hamamatsu Corporation, Tokyo, Japan) as an increase in the fluorescent static ratio. […] Agonist activity was analyzed as a concentration-dependent increase in calcium mobilization upon compound addition. Positive allosteric modulator activity was analyzed as a concentration-dependent increase in the EC20 acetylcholine response. […]
parameter: Emax at 30 µM (%)

Study these solved cases before continuing.
Fc1ccc2nc(C(F)(F)F)nc(N3CCc4ncc(N5CCCn6nccc65)cc4C3)c2c1 = 82
COc1cc2c(N3CCc4ncc(N5CCCn6nccc65)cc4C3)nc(Cl)nc2cc1F = 78
FC(F)(F)c1cnc2c(c1)CN(c1ncnc3ccc(Cl)cc13)CC2 = 105
FC(F)(F)c1cnc2c(c1)CN(c1ncnc3ccc(Br)cc13)CC2 = 98
COc1cc2c(N3CCc4ncc(C(F)(F)F)cc4C3)nc(C)nc2cc1F = 74

(P) FC(F)(F)c1cnc2c(c1)CN(c1nc(Cl)nc3ncccc13)CC2
(Q) Cc1ccc2ncnc(N3CCc4ncc(-c5ccccc5C)cc4C3)c2c1
(R) Cc1nc(N2CCc3ncc(C(F)(F)F)cc3C2)c2c(Cl)cccc2n1
(S) CC1(C)CN(c2nc(N3CCc4ncc(N5CCCn6nccc65)cc4C3)c3cccnc3n2)CCO1
[Q] Ordering criterion: Emax at 30 µM; begin with the maximum. Rank them, then answer with their labels in that order.
[A] Q, P, S, R

(a) Cc1ccc(Oc2cnc3c(c2)CN(c2ncnc4ccc(Cl)cc24)CC3)c(F)c1
(b) Cn1nccc1Nc1cnc2c(c1)CN(c1ncnc3ccc(Cl)cc13)CC2
[Q] Smaller Emax at 30 µM value? Options are a and b Which one? Tell me its label.
[A] a
(a: 64%, b: 95%)

(I) CC1(C)CN(c2cnc3c(c2)CN(c2ncnc4cc(F)c(F)cc24)CC3)CCO1
(II) COc1ccc2ncnc(N3CCc4ncc(Oc5ccc(C)cc5F)cc4C3)c2c1
[Q] Endpoint returns the identifier whose Emax at 30 µM is numerically larger, either I or II . Select an item and report its label.
[A] I
(I: 90%, II: 40%)

Data origin, for the record: patent US20250026752A1
